target_entity: dog plasma renin (Canis lupus familiaris, UniProt Q6DYE7)
Construct: Further assays measured human plasma renin and dog plasma renin
Sequence (Q6DYE7 66-403): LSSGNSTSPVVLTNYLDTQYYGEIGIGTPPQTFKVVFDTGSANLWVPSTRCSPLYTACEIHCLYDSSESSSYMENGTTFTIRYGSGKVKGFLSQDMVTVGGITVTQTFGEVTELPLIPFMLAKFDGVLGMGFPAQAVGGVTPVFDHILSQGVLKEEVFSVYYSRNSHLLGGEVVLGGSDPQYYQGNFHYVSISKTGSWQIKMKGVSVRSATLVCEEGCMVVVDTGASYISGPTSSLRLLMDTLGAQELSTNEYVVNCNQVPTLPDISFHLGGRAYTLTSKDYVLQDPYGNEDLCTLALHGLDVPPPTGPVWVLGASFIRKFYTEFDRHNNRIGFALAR
measurement_notes: Dog plasma renin assay
study_conditions: read-out: Dog Plasma I50
Numbered stars: 1 amine (or outer) side, 2 acyl side, 3 side chain; on linkers, the order of the positions; unused ones are H or OH. Square brackets hold non-standard residues; d marks the D form. Peptide text beside a SMILES is read from it. * marks the point of attachment. ACHPA = O=C(C[C@H](O)[C@H](CC1CCCCC1)N[*:1])[*:2]; Sta = CC(C)C[C@H](N)[C@@H](O)CC(=O)O; hhPhe = N[C@@H](CCCc1ccccc1)C(=O)O; hPhe = N[C@@H](CCc1ccccc1)C(=O)O; Isovaleryl = CC(C)CC(=O)*; Boc = CC(C)(C)OC(=O)*
Catalogue of pIC50 values
Give only the number. pIC50 is defined as minus log10 of concentration in molar units.

| compound | assay_endpoint | value |
| --- | --- | --- |
| COC(=O)[C@H](Cc1ccccc1)NC(=O)[C@H](CC(C)C)NC(=O)C[C@H](O)[C@H](CC1CCCCC1)NC(=O)[C@H](Cc1c[nH]cn1)NC(=O)[C@H](CCc1ccccc1)NC(=O)OC(C)(C)C [BOC--HomoPhe--His--ACHPA--Leu--Phe--OCH3, BocHPhe--His--ACHPA--Leu--Phe--OCH3] (Boc-[hPhe]H[ACHPA]LF-OMe) | pIC50 | 7.80 |
| CC(C)CC(=O)N[C@@H](Cc1c[nH]cn1)C(=O)N1CCC[C@H]1C(=O)N[C@@H](CCCc1ccccc1)C(=O)N[C@@H](Cc1c[nH]cn1)C(=O)N[C@@H](CC(C)C)[C@@H](O)CC(=O)N[C@@H](CC(C)C)C(=O)N[C@@H](Cc1ccccc1)C(N)=O (Isovaleryl-HP[hhPhe]H[Sta]LF-NH2) | pIC50 | 6.49 |
| CC(C)CC(=O)N[C@@H](Cc1c[nH]cn1)C(=O)N1CCC[C@H]1C(=O)N[C@@H](CCc1ccccc1)C(=O)N[C@@H](Cc1c[nH]cn1)C(=O)N[C@@H](CC(C)C)[C@@H](O)CC(=O)N[C@@H](CC(C)C)C(=O)N[C@@H](Cc1ccccc1)C(N)=O (Isovaleryl-HP[hPhe]H[Sta]LF-NH2) | pIC50 | 8.35 |

Next, consider the following compound.
Lookup result for `CC(C)C[C@H](NC(=O)C[C@H](O)[C@H](CC1CCCCC1)NC(=O)[C@H](Cc1c[nH]cn1)NC(=O)[C@H](CCc1ccccc1)NC(=O)OC(C)(C)C)C(N)=O` ; measured pIC50: 7.00

----------
target_entity: human kidney renin (Homo sapiens)
Construct: human kidney renin purified as described in Bangham; from tissue; host or cells: human kidney
Sequence (P00797 67-406): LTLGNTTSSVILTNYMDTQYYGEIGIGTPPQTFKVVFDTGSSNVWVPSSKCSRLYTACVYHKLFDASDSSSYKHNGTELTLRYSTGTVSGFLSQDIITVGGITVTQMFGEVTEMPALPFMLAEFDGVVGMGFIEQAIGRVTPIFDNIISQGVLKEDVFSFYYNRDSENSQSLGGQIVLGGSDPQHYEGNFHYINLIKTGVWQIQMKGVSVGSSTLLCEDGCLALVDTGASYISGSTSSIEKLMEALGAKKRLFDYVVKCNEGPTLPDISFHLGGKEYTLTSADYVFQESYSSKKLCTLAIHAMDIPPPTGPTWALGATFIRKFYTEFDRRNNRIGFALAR
measurement_notes: Inhibition of purified human kidney renin
Assay type: biochemical
study_conditions: dissociation constant of the inhibited enzyme-inhibitor complex
Method: Assays were carried out in order to determine the inhibitory potency of the peptides of the present invention. One assay measured the inhibition of hog kidney renin, and was in accordance with the procedure described in Rich et al., J. Med. Chem. 23: 27, 1980, except that a pH of 7.3 was used. Another assay measured the inhibition of human kidney renin purified as described in Bangham, D. R., Robertson, I., Robinson, J. I. S., Robinson, C. […]
Numbered stars: 1 amine (or outer) side, 2 acyl side, 3 side chain; on linkers, the order of the positions; unused ones are H or OH. Square brackets hold non-standard residues; d marks the D form. Peptide text beside a SMILES is read from it. * marks the point of attachment. ACHPA = O=C(C[C@H](O)[C@H](CC1CCCCC1)N[*:1])[*:2]; Sta = CC(C)C[C@H](N)[C@@H](O)CC(=O)O; hhPhe = N[C@@H](CCCc1ccccc1)C(=O)O; hPhe = N[C@@H](CCc1ccccc1)C(=O)O; Isovaleryl = CC(C)CC(=O)*; Boc = CC(C)(C)OC(=O)*
assay_endpoint: Ki (nM)

| compound | assay_endpoint | unit_info | value |
| --- | --- | --- | --- |
| COC(=O)[C@H](CC(C)C)NC(=O)C[C@H](O)[C@H](CC1CCCCC1)NC(=O)[C@H](Cc1c[nH]cn1)NC(=O)[C@H](CCc1ccccc1)NC(=O)OC(C)(C)C [BOC--HomoPhe--His--ACHPA--Leu--OCH3, BocHPhe--His--ACHPA--Leu--OCH3] | Ki | nM | 0.98 |
| CC(C)C[C@H](NC(=O)C[C@H](O)[C@H](CC1CCCCC1)NC(=O)[C@H](Cc1c[nH]cn1)NC(=O)[C@H](CCc1ccccc1)NC(=O)OC(C)(C)C)C(N)=O [BOC--HomoPhe--His--ACHPA--Leu--NH2, BocHPhe--His--ACHPA--Leu--NH2] | Ki | nM | 1.17 |
| CC(C)CC(=O)N[C@@H](Cc1c[nH]cn1)C(=O)N1CCC[C@H]1C(=O)N[C@@H](CCc1ccccc1)C(=O)N[C@@H](Cc1c[nH]cn1)C(=O)N[C@@H](CC(C)C)[C@@H](O)CC(=O)N[C@@H](CC(C)C)C(=O)N[C@@H](Cc1ccccc1)C(N)=O (Isovaleryl-HP[hPhe]H[Sta]LF-NH2) | Ki | nM | 0.33 |
| COC(=O)[C@H](Cc1ccccc1)NC(=O)[C@H](CC(C)C)NC(=O)C[C@H](O)[C@H](CC1CCCCC1)NC(=O)[C@H](Cc1c[nH]cn1)NC(=O)[C@H](CCc1ccccc1)NC(=O)OC(C)(C)C [BOC--HomoPhe--His--ACHPA--Leu--Phe--OCH3, BocHPhe--His--ACHPA--Leu--Phe--OCH3] (Boc-[hPhe]H[ACHPA]LF-OMe) | Ki | nM | 0.39 |
| CC(C)CC(=O)N[C@@H](Cc1c[nH]cn1)C(=O)N1CCC[C@H]1C(=O)N[C@@H](CCCc1ccccc1)C(=O)N[C@@H](Cc1c[nH]cn1)C(=O)N[C@@H](CC(C)C)[C@@H](O)CC(=O)N[C@@H](CC(C)C)C(=O)N[C@@H](Cc1ccccc1)C(N)=O (Isovaleryl-HP[hhPhe]H[Sta]LF-NH2) | Ki | nM | 90 |
